Ki data for UniProt P35372 follow.
Use µM as the unit, but write only the number.

Under UniProt P35372, report Ki for COc1ccc2c3c1OC1C(OC(C)=O)=CC[C@@]4(O)[C@@H](C2)N(C)CC[C@]314 (some centres unmarked) [6-acetyl oxycodone]
0.041

Check UniProt P35372 data and give Ki for COCCOCCOCC(=O)OC1=CC[C@@]2(O)[C@H]3Cc4ccc(OC)c5c4[C@@]2(CCN3C)C1O5 (some centres unmarked) [6-PEG oxycodone] .
0.022

Please respond with reported Ki (system UniProt P35372) for COCCOCCOCC(=O)OC1=CCC2(OC(=O)COCCOCCOC)[C@H]3Cc4ccc(OC)c5c4[C@@]2(CCN3C)C1O5 (some centres unmarked) [6,14-bis-PEG oxycodone] .
0.052

State Ki on UniProt P35372. Entry: CCCCCCCCCCCC(=O)OC1=CC[C@@]2(O)[C@H]3Cc4ccc(OC)c5c4[C@@]2(CCN3C)C1O5 (some centres unmarked) [6-lauroyl oxycodone]
0.096

System UniProt P35372. Read-out Ki. Item CCCCCCCCCCCC(=O)OC1=CC[C@@]2(OC(=O)CCCCCCCCCCC)[C@H]3Cc4ccc(OC)c5c4[C@@]2(CCN3C)C1O5 (some centres unmarked) [6,14-bis-lauroyl oxycodone] . Report value.
22.2
